- Assay system: Autotaxin (ENPP2, NPP2) (Homo sapiens, UniProt Q13822 Q13822:36-863)
- Experiment notes: inhibition; NPP2 assay, pNP-TMP substrate, solution A (Ca, Mg), 37 C
Would you mind telling me the reported IC50 of each entry?
Field format: number, assumed nM, no unit text.

Qu. Consider the binder shown here: UCUGAGGGAAACAGGUUUUGCUCCUCGGA (mixed, dT1,dC2,dT3; 2'-deoxy G8,G14,G15,C23,C24,C26; 2'-OMe G4,A5,G6,G7,A9,A11,A13,G20,G27,G28,A29; 2'-OH A10 with PS; other pyrimidines 2'-F; 5' 80 kDa PEG (GL2-800GS2)-ssH linker; 3' idT) [SEQ 16(54)] What is its recorded IC50?
Ans. 2.3

Qu. Consider the binder shown here: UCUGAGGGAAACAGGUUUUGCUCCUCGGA (mixed, dT1; 2'-deoxy G8,G14,G15,C23,C26; 2'-OMe G4,A5,G6,G7,A9,A11,A13,G20,C24,U25,G27,G28,A29; 2'-OH A10 with PS; other pyrimidines 2'-F; 5' and 3' idT) [SEQ 16(56)] What is its recorded IC50?
Ans. 0.2

Qu. Consider the binder shown here: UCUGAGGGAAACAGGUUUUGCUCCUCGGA (mixed, 2'-deoxy G8,G14,G15,C23,C26; 2'-OMe G4,A5,G6,G7,A9,A11,A13,G20,G27,G28,A29; 2'-OH A10; other pyrimidines 2'-F; 5' 80 kDa PEG (GL2-800GS2)-ssH linker; 3' idT) [SEQ 16(50)] What is its recorded IC50?
Ans. 12

Qu. Consider the binder shown here: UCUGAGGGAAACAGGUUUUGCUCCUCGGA (mixed, dT1; 2'-deoxy G8,G14,G15,C23,C26; 2'-OMe C2,U3,G4,A5,G6,G7,A9,A11,A13,G20,U22,C24,U25,G27,G28,A29; 2'-OH A10 with PS; other pyrimidines 2'-F; 5' 40 kDa PEG (GL2-400GS2)-ssH linker; 3' idT) [SEQ 16(66)] What is its recorded IC50?
Ans. 0.7
